The following compounds are listed with their measured pIC50 values.
- experimental_target: human cathepsin K (Homo sapiens)
- Construct: The proform of cathepsin K was converted to mature cathepsin K by brief exposure to pH 4; made in house; host or cells: baculovirus; Trichoplusia ni High Five cells (virus raised in Sf-9)
- Sequence (P43235 115-329): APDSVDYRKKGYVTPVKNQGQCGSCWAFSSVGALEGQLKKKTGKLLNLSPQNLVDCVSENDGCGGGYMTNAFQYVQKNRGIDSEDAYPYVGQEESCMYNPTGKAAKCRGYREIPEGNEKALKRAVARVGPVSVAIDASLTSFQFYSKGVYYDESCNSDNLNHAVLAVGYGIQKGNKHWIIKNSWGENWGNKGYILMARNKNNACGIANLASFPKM
- assay_name: Cathepsin K inhibition assay, human recombinant enzyme, fluorogenic substrate Cbz-Phe-Arg-AMC
- Type: biochemical
- protocol_conditions: Table 1, human cathepsin K; read-out: h Cat K IC50
pIC50: −log10 of the molar value.

Known results for compounds:
compound="CCCC[C@H](NC(=O)O[C@@H]1CN(C(=O)O[C@@H]2CCOC2)CC1(C)C)C(=O)C(=O)N[C@H](C)c1ccccc1 [Example 56]" endpoint_label=pIC50 reported="7.00 to 8.00"
compound="CCCC[C@H](NC(=O)O[C@@H]1CN(C(=O)c2ccno2)CC1(C)C)C(=O)C(=O)N[C@H](C)c1ccccc1 [Example 12]" endpoint_label=pIC50 reported="8.00 to 9.00"
compound="CCCC[C@H](NC(=O)O[C@@H]1CN(c2nc3ccccc3s2)CC1(C)C)C(=O)C(=O)Nc1ccn[nH]1 [Example 81]" endpoint_label=pIC50 reported="9.00 to 10.00"

Turning now to a further record.
// query What does the data say about its pIC50? Entry: CCCC[C@H](NC(=O)O[C@@H]1CN(C(=O)Oc2cccc(Oc3ccccc3)c2)CC1(C)C)C(=O)C(=O)N[C@H](C)c1ccccc1 [Example 59]
// result 7.00 to 8.00

* * *

- experimental_target: human cathepsin K (Homo sapiens)
- Construct: The proform of cathepsin K was converted to mature cathepsin K by brief exposure to pH 4; made in house; host or cells: baculovirus; Trichoplusia ni High Five cells (virus raised in Sf-9)
- assay_name: Cathepsin K inhibition assay, human recombinant enzyme, fluorogenic substrate Cbz-Phe-Arg-AMC
- Assay type: biochemical
- protocol_conditions: Table 1, human cathepsin K; read-out: h Cat K IC50
pIC50: −log10 of the molar value.
endpoint_label: pIC50

Before answering, review these 5 worked examples.
compound=CCCC[C@H](NC(=O)O[C@@H]1CN(C(=O)OCCc2scnc2C)CC1(C)C)C(=O)C(=O)N[C@H](C)c1ccccc1 reported="8.00 to 9.00"
compound=CCCC[C@H](NC(=O)O[C@@H]1CN(C(=O)c2c(-c3ccccc3)noc2C)CC1(C)C)C(=O)C(=O)N[C@H](C)c1ccccc1 reported="7.00 to 8.00"
compound="CCCC[C@H](NC(=O)OC1C(=O)N(Cc2ccccc2)CC1(C)C)C(=O)C(=O)N[C@H](C)c1ccccc1 (stereo partly shown)" reported="7.00 to 8.00"
compound=CCCC[C@H](NC(=O)O[C@@H]1CN(C(=O)c2n[nH]c3ccccc23)CC1(C)C)C(=O)C(=O)N[C@H](C)c1ccccc1 reported="8.00 to 9.00"
compound="CCCC[C@H](NC(=O)O[C@@H]1CN(C(=O)OCC2CCCCO2)CC1(C)C)C(=O)C(=O)N[C@H](C)c1ccccc1 (stereo partly shown)" reported="6.00 to 7.00"

// query pIC50 value for entry CCCC[C@H](NC(=O)O[C@@H]1CN(C(=O)c2cc3ccccc3n2C)CC1(C)C)C(=O)C(=O)N[C@H](C)c1ccccc1
// result 7.00 to 8.00

// query // repeat for CCCC[C@H](NC(=O)O[C@@H]1CN(C(=O)N2CCOCC2)CC1(C)C)C(=O)C(=O)N[C@H](C)c1ccccc1 and report
// result 7.00 to 8.00
